Recorded ADCC cytotoxic activity (51Cr release) against MIAPaCa-2 values for a group of binders are listed next.
study-target: T1, human CAPRIN-1 expressed on the surface of human cancer cells (human, UniProt Q14444 2-709); note: test concentration or dose not given here
T1 sequence: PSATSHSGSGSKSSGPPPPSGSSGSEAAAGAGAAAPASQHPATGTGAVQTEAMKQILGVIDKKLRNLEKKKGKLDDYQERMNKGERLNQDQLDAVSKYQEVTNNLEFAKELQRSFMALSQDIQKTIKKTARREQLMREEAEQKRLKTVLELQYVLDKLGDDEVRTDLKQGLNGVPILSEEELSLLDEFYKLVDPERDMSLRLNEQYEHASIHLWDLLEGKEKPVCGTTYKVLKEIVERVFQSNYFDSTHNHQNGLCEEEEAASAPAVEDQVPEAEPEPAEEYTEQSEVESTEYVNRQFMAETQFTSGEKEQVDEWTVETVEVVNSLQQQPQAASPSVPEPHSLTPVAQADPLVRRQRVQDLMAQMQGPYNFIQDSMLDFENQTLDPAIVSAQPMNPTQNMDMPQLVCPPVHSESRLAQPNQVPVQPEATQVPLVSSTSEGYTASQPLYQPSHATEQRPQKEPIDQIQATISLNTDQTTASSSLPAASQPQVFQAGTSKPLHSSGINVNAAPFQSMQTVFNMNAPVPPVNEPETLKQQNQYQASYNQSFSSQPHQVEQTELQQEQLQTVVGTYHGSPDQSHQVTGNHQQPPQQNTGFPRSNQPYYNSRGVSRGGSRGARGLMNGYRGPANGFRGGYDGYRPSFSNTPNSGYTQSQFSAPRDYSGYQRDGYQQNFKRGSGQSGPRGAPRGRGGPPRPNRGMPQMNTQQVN
procedure-summary: cell-based or functional assay

Known ADCC cytotoxic activity (51Cr release) against MIAPaCa-2 results, listed for orientation:
>>> endpoint_value("human-chicken chimeric monoclonal antibody #1 (antibody, V domains shown) VH: AVTLDESGGGLQTPGGALSLVCKASGFTFRSHSMFWVRQAPGKGLEYVAGIYGVGRSIRYGSAVKGRATMSRDNGQSTVRLQLNNLRAEDTATYYCAKSGYFSNSRYWDSGAYFIDAWGHGTEVIVS VL: ALTQPASVSANPGETVEITCSGGYSNYGWYQQKSPGSAPVTVIYYNDKRPSDIPSRFSGSKSGSTATLTITGVQAEDEAVYFCGGYDSSTDAGIFGAGTTLTV")
"≥ 28%"
>>> endpoint_value("human-mouse chimeric monoclonal antibody #2 (antibody, human IgG1, kappa, V domains shown) VH: GGGLVKPGGSLKLSCAASGFTFSSYGMSWVRQTPEKRLEWVATISSGGSYTYYPDSVKGRFTISRDNAKNTLYLQMSSLRSEDTAMYYCASLASYYFDYWGQGTTLTVSS VL: GARCDVQMIQSPSSLSASLGDIVTMTCQASQGTSINLNWFQQKPGKAPKLLIYGASSLEDGVPSRFSGSCFGTDFTLTISSLEDEDMATYFCLQHSYLPPLTFGAGTKLELKR")
"≥ 32%"

Now take the following binder into account.
q: Give ADCC cytotoxic activity (51Cr release) against MIAPaCa-2 for the following binder: human-mouse chimeric comparative monoclonal antibody 7 (antibody, human IgG1, kappa, V domains shown) VH: LQESGAELARPGASVKLSCKASGYTFTSYWMQWVKQRPGQGLEWIGAIYPGDGDTRYTQKFKGKATLTADKSSSTAYMQLSSLASEDSAVYYCARGEYGNYFAYWGQGTTVTVSS VL: TSDASLGERVTITCKASQDINSYLSWFQQKPGKSPKTLIYRANRLVDGVPSRFSGSGSGQDYSLTISSLEYEDMGIYYCLQYDEFPLTFGGGTKLEIKQ
a: 7%
